- Species: Rattus norvegicus
- run.description: DrugMatrix - Regimen: Daily Repeat
- Type: toxicity, organism-based, Sprague-Dawley
- Design: regimen Daily Repeat, gender Male, age 6-8 weeks
- setup.conditions: in vivo, po, 0 mg/kg, 72 h, tissue Plasma, route oral GAVAGE, dose level Control, time 3 day, vehicle 100 % WATER
endpoint.label: ALBUMIN
Respond with the figure and its unit, in that order.

Consider the worked cases shown below.
Cc1ccc(NC(=O)c2ccc(CN3CCN(C)CC3)cc2)cc1Nc1nccc(-c2cccnc2)n1: 4.32 G/DL
C[C@]12C=CC(=O)C=C1CC[C@@H]1[C@@H]2[C@@H](O)C[C@@]2(C)[C@H]1CC[C@]2(O)C(=O)CO: 4.27 G/DL
CCN(CC)CCNC(=O)c1cc(S(C)(=O)=O)ccc1OC [TIAPRIDE]: 4.32 G/DL

**Q:** Sample CC(C)(C)CC(C)(C)c1ccc(OCCOCC[N+](C)(C)Cc2ccccc2)cc1.[Cl-] [BENZETHONIUM CHLORIDE] — what was its ALBUMIN?
**A:** 4.02 G/DL
